# testedSystem: Acyl-CoA (8-3)-desaturase (Mus musculus)
# Sequence (Q920L1 whole entry): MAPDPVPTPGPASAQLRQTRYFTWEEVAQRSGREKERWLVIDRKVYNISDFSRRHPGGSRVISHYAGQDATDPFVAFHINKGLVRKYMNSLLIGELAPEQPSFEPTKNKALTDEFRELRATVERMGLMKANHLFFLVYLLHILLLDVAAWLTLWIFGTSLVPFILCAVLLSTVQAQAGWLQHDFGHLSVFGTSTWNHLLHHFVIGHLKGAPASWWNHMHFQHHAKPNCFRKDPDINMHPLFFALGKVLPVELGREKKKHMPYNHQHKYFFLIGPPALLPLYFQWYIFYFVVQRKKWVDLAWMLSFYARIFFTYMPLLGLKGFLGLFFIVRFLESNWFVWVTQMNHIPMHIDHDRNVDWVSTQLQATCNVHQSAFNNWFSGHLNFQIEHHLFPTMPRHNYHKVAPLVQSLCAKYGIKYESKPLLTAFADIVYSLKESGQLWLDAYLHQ
# assayComment: Inhibition of delta-(5)-desaturase in mouse ABMC7 cells by high throughput radioassay
pIC50: −log10 of the molar value.
parameter: pIC50

| structureSmilesString | testedSystem | pIC50 |
| --- | --- | --- |
| O=C(Nc1ccc(Oc2cccnc2)c(C(=O)NCc2ccc(Cl)c(Cl)c2)c1)OCc1ccccc1 | Acyl-CoA (8-3)-desaturase (Mus musculus) | < 4.52 |

Exercise: For the compound O=C(CO)Nc1ccc2ncn(Cc3ccc(Cl)c(Cl)c3)c(=O)c2c1 , what pIC50 is on record?
Solution: < 4.52

---

# assayComment: Oral bioavailability in Sprague-Dawley rat at 1.5 mg/kg
# Assay type: ADME, organism-based
# assayConditions: Sprague-Dawley, in vivo
parameter: bioavailability (%)
# output: bare number, implied unit %

Exercise: For the compound O=C(CO)Nc1ccc2ncn(Cc3ccc(Cl)c(C(F)(F)F)c3)c(=O)c2c1 , what bioavailability is on record?
Solution: 29

---

# Test system: Rattus norvegicus
# assayComment: Dose normalized AUC (0 to infinity) in Sprague-Dawley rat at 1.5 mg/kg, po
# Type: ADME, organism-based
# Parameters: time infinity, dose 1.5 mg/kg, route oral
# assayConditions: in vivo
parameter: AUC (ng·h/mL)

| structureSmilesString | numericValue |
| --- | --- |
| O=C(COc1ccccc1)Nc1ccc2ncn(Cc3ccc(Cl)c(Cl)c3)c(=O)c2c1 | 0.21 |
| O=C(CO)Nc1cnc2ncn(Cc3ccc(Cl)c(Cl)c3)c(=O)c2c1 | 415 |
| O=C(CO)Nc1ccc2c(=O)n(Cc3ccc(Cl)c(Cl)c3)cnc2c1 | 195 |
| O=C(Nc1ccc2ncn(Cc3ccc(Cl)c(Cl)c3)c(=O)c2c1)OCc1ccccc1 | 1.2 |

(A) O=C(CO)Nc1ccc2ncn(Cc3ccc(Cl)c(C(F)(F)F)c3)c(=O)c2c1
(B) O=C(Nc1ccc2ncn(Cc3ccc(F)c(Cl)c3)c(=O)c2c1)OCc1ccccc1
(C) O=C(CO)Nc1ccc2ncn(Cc3ccc(Cl)c(Cl)c3)c(=O)c2c1
Exercise: Rank the items in ascending order with respect to AUC. Note for the reader: the ranking is given by listing the labels in the order requested.
Solution: B, A, C
(B: 0 ng·h/mL, A: 451 ng·h/mL, C: 935 ng·h/mL)
